Protocol Details: NCI Yeast Anticancer Drug Screen. Data for the cln2 rad14 strain (AID 165);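 also: 0% = growth equal to vehicle treated cultures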
Condition Label: S. cerevisiae cln2 rad14 strain, at 50.0 µM, active compounds read high
This is part of a sample that, as a whole, favours compounds with a hit. Of some 79,000 tested, about 15% had one in any assay.
Parameter: growth inhibition. Scope: all listed entries.
Value expressed in %; do not type the unit.

Completed entries (count: 3):
compound=O=C1c2ccccc2-c2ccc(N3C(=O)C=CC3=O)cc21 test_result=56.2
compound=Cc1cccc(-n2cnc3c(N(CCO)CCO)ncnc32)c1 test_result=-4.5
compound="CN(C)c1ncnc2c1ccn2CC(O)CO (stereo not given)" test_result=-54.5

Query (compound): "Nc1ccc(C(=O)N/N=C/c2ccc(Cl)cc2Cl)cc1" ; field requested: growth inhibition
8

What value of growth inhibition has been reported for the following compound? "O=S(=O)(O)CCNC(=S)C(=S)NCCS(=O)(=O)O"
6.2

# query: growth inhibition of entry "CCNC(=O)N(Cc1ccccc1)Cc1ccccc1"
13.3

Look at this compound and give its reported growth inhibition. O=C1/C(=N\O)C2CCC1C2 (stereo not given)
2.5

Recorded growth inhibition for "Cc1c(-c2ccccc2)c(=O)oc2cc(O)ccc12" , please?
-49.2

Recorded growth inhibition for COc1cc(C2c3cc4c(cc3OC(N3CCCC3)C2C)OCO4)cc(OC)c1OC (stereo not given) , please?
5.75

Fill in the blank: the reported growth inhibition of CC(C(O)c1ccc(Cl)cc1)C(O)(C(F)(F)F)C(F)(F)F (stereo not given) is ____.
99

Which growth inhibition reading was recorded for the compound "Cc1cc(N(CCCOS(C)(=O)=O)CCCOS(C)(=O)=O)ccc1C=Nc1cc(Cl)c(O)c(Cl)c1" ?
8.65

Data request, read-out growth inhibition, for "CON(C)CCOC(=O)c1ccc([N+](=O)[O-])cc1"
-21.4

Looking for the measured growth inhibition of "CCn1c2ccc(N=C=O)cc2c2c3[nH]c(=O)c4cccn4c3ccc21" , can you help?
0.55

Requested field: growth inhibition. Item: COc1cc2c(c(O)c1OC)C(=O)[C@@H]1CCC(=O)N1C2c1ccccc1 (stereo not given in full)
13.1

Requested read-out: growth inhibition. Entry: NC(Cc1ccccc1)C(=O)CCl (stereo not given)
18.4

###

Protocol Details: NCI Yeast Anticancer Drug Screen. Data for the bub3 strain (AID 167)
Condition Label: S. cerevisiae bub3 mutant strain, at 50.0 µM, active compounds read high
This is part of a sample that, as a whole, favours compounds with a hit. Of some 79,000 tested, about 15% had one in any assay.
Outcome Measure: growth inhibition (%)
Your answer should be a plain number; it is taken to be in %.

compound=O/N=C(/c1ccccc1)C1CCCCC1 outcome_measure="growth inhibition" unit_descriptor=% test_result=-8.5
compound=Cc1ccncc1C#N outcome_measure="growth inhibition" unit_descriptor=% test_result=0.3
compound="NC1Nc2ccccc2NC1=O (centres undefined)" outcome_measure="growth inhibition" unit_descriptor=% test_result=6.4
compound=CCC(c1ccc(N(C)C)cc1)c1ccc(N(C)C)cc1 outcome_measure="growth inhibition" unit_descriptor=% test_result=0.05

Fill blank: measured growth inhibition of the compound "CN1C(=O)CCSC1=S" is ____.
14.4

Query: growth inhibition; subject: "O=C1c2ccccc2CN(C(=Nc2ccccc2)Nc2ccccc2)c2ccccc21"
-0.7

Quick one: growth inhibition for CC(=O)OCC(OC(C)=O)C(OC1OC(COC(C)=O)C(OC(C)=O)C(OC(C)=O)C1OC(C)=O)C(OC(C)=O)C(C=O)OC(C)=O (centres undefined) ?
-3.8

// growth inhibition lookup, key: "O=c1[nH]c2nc3ccccc3c(=O)n2/c1=C/c1ccco1"
23.1

Entry "O/N=C1\CCCC\C1=N/O.O/N=C1\CCCC\C1=N/O.[Pt]" : reported growth inhibition = ?
-1.75
